# Tested on: HCC1187 cells
# method notes: Proliferation assay (IncuCyte cell confluence), HCC1187
# Format: cell-based
# condition details: Homo sapiens, concentration for 50% of maximal inhibition of cell proliferation
observable: GI50 (µM)

# molecule, value observed
measured = [
    ("Cc1cc(C)c(CNC(=O)c2cc(-c3ccc(N4CCN(CCCNC(=O)[C@H](C)CCC56CC7CC(CC(C7)C5)C6)CC4)nc3)cc3c2cnn3C(C)C)c(=O)[nH]1 [AM16-106A]", 4.3),
]

[I] CCCc1cc(C)[nH]c(=O)c1CNC(=O)c1cc(-c2ccc(N3CCN(C(=O)CC45CC6CC(CC(C6)C4)C5)CC3)nc2)cc2c1cnn2C(C)C [AM16-37A]
[II] Cc1cc(C)c(CNC(=O)c2cc(-c3ccc(N4CCN(C(=O)[C@H](C)CCC56CC7CC(CC(C7)C5)C6)CC4)nc3)cc3c2cnn3C(C)C)c(=O)[nH]1 [AM16-97A]
q: Lab notebook, comparison: I versus II , higher GI50 goes to which? In your reply, give the label of the chosen option.
a: I

[A] Cc1cc(C)c(CNC(=O)c2cc(-c3ccc(N4CCN(CCNC(=O)CCC56CC7CC(CC(C7)C5)C6)CC4)nc3)cc3c2cnn3C(C)C)c(=O)[nH]1
[B] CCCc1cc(C)[nH]c(=O)c1CNC(=O)c1cc(-c2ccc(N3CCN(CCNC(=O)CC45CC6CC(CC(C6)C4)C5)CC3)nc2)cc2c1cnn2C(C)C [AM16-10A]
[C] Cc1cc(C)c(CNC(=O)c2cc(-c3ccc(N4CCN(C(=O)CC56CC7CC(CC(C7)C5)C6)CC4)nc3)cc3c2cnn3C(C)C)c(=O)[nH]1 [AM16-92A]
q: List these items ordered by GI50, big to small. Quick reminder: the answer is the labels in the order asked.
a: A, C, B
(A: 2.2 µM, C: 1.1 µM, B: 0.57 µM)

[A] CCCc1cc(C)[nH]c(=O)c1CNC(=O)c1cc(-c2ccc(N3CCN(CCNC(=O)CCC45CC6CC(CC(C6)C4)C5)CC3)nc2)cc2c1cnn2C(C)C [AM16-11A]
[B] Cc1cc(C)c(CNC(=O)c2cc(-c3ccc(N4CCN(C(=O)CCC56CC7CC(CC(C7)C5)C6)CC4)nc3)cc3c2cnn3C(C)C)c(=O)[nH]1 [AM16-93A]
[C] Cc1cc(C)c(CNC(=O)c2cc(-c3ccc(N4CCN(CCNC(=O)CC56CC7CC(CC(C7)C5)C6)CC4)nc3)cc3c2cnn3C(C)C)c(=O)[nH]1
q: Sort entries by GI50 from minimum to maximum value. Quick reminder: the answer is the labels in the order asked.
a: C, B, A
(C: 0.65 µM, B: 1.5 µM, A: 2.6 µM)

[a] CCCc1cc(C)[nH]c(=O)c1CNC(=O)c1cc(-c2ccc(N3CCN(C(=O)CCC45CC6CC(CC(C6)C4)C5)CC3)nc2)cc2c1cnn2C(C)C [AM16-38A]
[b] Cc1cc(C)c(CNC(=O)c2cc(-c3ccc(N4CCN(CCNC(=O)[C@H](C)CCC56CC7CC(CC(C7)C5)C6)CC4)nc3)cc3c2cnn3C(C)C)c(=O)[nH]1 [AM16-105A]
q: Lab notebook, comparison: a versus b , higher GI50 goes to which? In your reply, give the label of the chosen option.
a: a
(a: 2 µM, b: 1.2 µM)
